Test system: Staphylococcus aureus
Test: Minimum inhibitory activity against Staphylococcus aureus ATCC 6538P
Assay type: functional
readoutKind: MIC (µg/mL)
Just the number in µg/mL, nothing appended.

// below: answered compounds
compound="CC[C@H]1OC(=O)[C@H](C)[C@@H](OC2C[C@@](C)(OC)[C@@H](O)[C@H](C)O2)[C@H](C)[C@@H](OC2O[C@H](C)C[C@H](NC)[C@H]2O)[C@@](C)(OC)C[C@@H](C)C(=O)[C@H](C)[C@H]2N(CCc3ccc(Cl)cc3)C(=O)O[C@]12C (stereo partly specified)" subjectoftest="Staphylococcus aureus" readoutkind=MIC recordednumber=1.56
compound="CC[C@H]1OC(=O)[C@H](C)[C@@H](OC(=O)N2C(=O)OC[C@@H]2C)[C@H](C)[C@@H](OC2O[C@H](C)C[C@H](N(C)CC3CC3)[C@H]2O)[C@@](C)(OC)C[C@@H](C)C(=O)[C@H](C)[C@H]2N(CCc3ccc(F)c(Cl)c3)C(=O)O[C@]12C (stereo partly specified)" subjectoftest="Staphylococcus aureus" readoutkind=MIC recordednumber=100

Attention now shifts to the item below.
Ask: Identify measured MIC corresponding to CC[C@H]1OC(=O)[C@H](C)[C@@H](OC2C[C@@](C)(OC)[C@@H](O)[C@H](C)O2)[C@H](C)[C@@H](OC2O[C@H](C)C[C@H](N(C)C)[C@H]2O)[C@@](C)(OC)C[C@@H](C)C(=O)[C@H](C)[C@H]2N(CCc3ccc(Cl)cc3)C(=O)O[C@]12C (stereo partly specified)
Result: 0.39
